Target: CDK2/Cyclin A2 (Homo sapiens)
Test: Inhibition of CDK2/Cyclin A (unknown origin) using histone H1 as substrate in presence of gamma[32P] ATP by phosphorimaging analysis
Format: protein-complex assay
reported_metric: IC50
The reply must contain the numeric value and, after it, the unit.

What the record says about `CCNCc1cncc(-c2ccc3[nH]nc(-c4nc5c(F)cc(F)cc5[nH]4)c3c2)c1C` : IC50 is 3 nM

###

Target: Cyclin-dependent kinase 1/cyclin B1 (Homo sapiens, UniProt P06493)
Sequence (P06493 whole entry): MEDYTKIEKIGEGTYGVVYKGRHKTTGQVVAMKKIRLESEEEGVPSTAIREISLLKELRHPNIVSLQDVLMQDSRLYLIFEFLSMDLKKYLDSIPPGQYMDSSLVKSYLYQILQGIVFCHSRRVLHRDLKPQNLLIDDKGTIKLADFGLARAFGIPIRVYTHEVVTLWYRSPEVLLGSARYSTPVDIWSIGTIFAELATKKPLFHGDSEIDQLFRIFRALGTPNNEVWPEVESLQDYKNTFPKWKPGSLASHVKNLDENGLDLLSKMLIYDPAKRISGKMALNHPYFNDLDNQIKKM
Sequence (P14635 whole entry, further chain): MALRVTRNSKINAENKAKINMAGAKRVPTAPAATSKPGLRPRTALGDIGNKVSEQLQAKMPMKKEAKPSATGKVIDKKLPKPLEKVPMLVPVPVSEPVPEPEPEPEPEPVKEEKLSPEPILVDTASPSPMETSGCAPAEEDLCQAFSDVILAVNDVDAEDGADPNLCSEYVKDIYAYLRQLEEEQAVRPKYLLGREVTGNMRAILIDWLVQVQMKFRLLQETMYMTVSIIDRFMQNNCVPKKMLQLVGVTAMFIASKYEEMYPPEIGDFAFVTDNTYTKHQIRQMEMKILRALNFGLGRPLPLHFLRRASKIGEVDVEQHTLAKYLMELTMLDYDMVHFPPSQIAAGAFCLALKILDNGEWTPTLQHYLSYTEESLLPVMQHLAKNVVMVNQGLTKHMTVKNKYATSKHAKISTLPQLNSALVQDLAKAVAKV
Assay: Inhibition of CDK1/cyclin B1 (unknown origin) using histone-h1 as substrate measured after 10 mins in presence of [gamma33P]ATP
Format: protein-complex assay
reported_metric: IC50

What the record says about `O=C(Nc1cccc(OC[C@H]2CCCN2)n1)Nc1csc(-c2ccncc2)n1` : IC50 is < 10 nM

###

Biological target: CDK9/cyclin T1 (Homo sapiens)
Sequence (O60563 whole entry): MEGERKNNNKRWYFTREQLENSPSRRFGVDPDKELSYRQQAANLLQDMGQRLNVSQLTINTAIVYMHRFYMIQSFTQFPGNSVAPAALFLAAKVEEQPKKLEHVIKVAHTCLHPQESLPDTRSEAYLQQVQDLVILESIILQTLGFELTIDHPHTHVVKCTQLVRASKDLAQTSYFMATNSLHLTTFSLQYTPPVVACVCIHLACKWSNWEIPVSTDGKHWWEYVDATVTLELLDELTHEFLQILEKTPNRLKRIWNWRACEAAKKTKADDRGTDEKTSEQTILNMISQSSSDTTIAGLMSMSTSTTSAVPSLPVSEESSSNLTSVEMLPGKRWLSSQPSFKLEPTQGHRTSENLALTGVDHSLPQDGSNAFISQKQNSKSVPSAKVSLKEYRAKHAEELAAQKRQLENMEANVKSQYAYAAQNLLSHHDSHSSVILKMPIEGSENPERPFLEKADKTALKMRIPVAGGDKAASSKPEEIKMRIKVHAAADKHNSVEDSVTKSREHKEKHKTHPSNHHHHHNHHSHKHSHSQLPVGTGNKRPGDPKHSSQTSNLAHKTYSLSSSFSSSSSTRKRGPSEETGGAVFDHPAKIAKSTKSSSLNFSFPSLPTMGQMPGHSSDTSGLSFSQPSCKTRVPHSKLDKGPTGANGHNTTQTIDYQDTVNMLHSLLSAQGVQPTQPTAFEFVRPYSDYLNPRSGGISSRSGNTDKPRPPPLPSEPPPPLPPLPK
Sequence (P50750 whole entry): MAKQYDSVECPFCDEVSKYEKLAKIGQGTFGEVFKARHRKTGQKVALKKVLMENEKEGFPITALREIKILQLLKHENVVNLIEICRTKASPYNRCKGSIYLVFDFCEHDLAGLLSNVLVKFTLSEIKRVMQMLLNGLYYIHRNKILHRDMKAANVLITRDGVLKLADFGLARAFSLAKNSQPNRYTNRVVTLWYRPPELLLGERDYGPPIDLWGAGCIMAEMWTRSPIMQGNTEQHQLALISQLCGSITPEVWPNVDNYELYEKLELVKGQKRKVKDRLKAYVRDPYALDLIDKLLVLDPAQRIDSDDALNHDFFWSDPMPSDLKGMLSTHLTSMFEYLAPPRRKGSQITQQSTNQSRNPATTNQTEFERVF
Test: Inhibition of CDK9/Cyclin T (unknown origin)
Assay type: protein-complex assay
reported_metric: pIC50
Just the number, please; pIC50 means minus log10 of the concentration in mol/L.

What the record says about `Nc1nc(Nc2ccc(S(=O)(=O)NCCO)cc2)nc(OCC2CCCCC2)c1N=O` : pIC50 is 5.58

###

Biological target: CDK3/Cyclin E (Homo sapiens)
Sequence (P24864 whole entry): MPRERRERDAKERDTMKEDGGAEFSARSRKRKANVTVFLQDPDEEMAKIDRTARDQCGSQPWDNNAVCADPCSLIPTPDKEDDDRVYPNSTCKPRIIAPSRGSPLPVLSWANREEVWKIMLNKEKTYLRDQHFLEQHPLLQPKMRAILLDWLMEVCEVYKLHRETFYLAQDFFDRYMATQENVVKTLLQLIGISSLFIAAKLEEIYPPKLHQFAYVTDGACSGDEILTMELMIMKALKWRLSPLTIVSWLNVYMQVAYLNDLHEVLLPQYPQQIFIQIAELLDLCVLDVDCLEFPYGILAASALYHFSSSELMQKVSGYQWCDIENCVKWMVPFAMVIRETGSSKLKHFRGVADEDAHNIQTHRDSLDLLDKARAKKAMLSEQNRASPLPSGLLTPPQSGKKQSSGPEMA
Sequence (Q00526 whole entry): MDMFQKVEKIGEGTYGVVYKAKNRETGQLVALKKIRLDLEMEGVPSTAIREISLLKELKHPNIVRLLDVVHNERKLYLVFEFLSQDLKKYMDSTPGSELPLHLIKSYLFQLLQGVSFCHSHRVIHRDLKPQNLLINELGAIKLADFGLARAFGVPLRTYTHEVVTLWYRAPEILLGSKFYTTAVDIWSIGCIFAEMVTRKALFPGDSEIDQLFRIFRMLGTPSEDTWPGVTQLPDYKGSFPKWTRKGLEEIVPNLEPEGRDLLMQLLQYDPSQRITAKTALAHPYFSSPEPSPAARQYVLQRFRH
Experiment: Inhibition of recombinant human full-length C-terminal His6-tagged CDK3/full-length human N-terminal GST-tagged Cyclin E expressed in baculovirus infected Sf21 insect cells using histone H1 as substrate
reported_metric: IC50 (nM)
Give just the number in nM; leave the unit off.

What the record says about `CN1C/C=C/CCOc2cccc(c2)-c2ccnc(n2)Nc2cccc(c2)C1` : IC50 is 8

###

Biological target: CDK2/Cyclin-E2 (Homo sapiens, UniProt O96020+P24941)
Assay: Inhibition of recombinant CDK2/Cyclin E2 (unknown origin) expressed in baculovirus expression system using biotinylated-histone H1 as substrate measured after 60 mins by HTRF assay
pIC50: −log10 of the molar value.
reported_metric: pIC50

What the record says about `O=C(Nc1cccc(OC[C@H]2CCCN2)n1)Nc1csc(-c2ccncc2)n1` : pIC50 is > 8.00

###

Molecular target: Cyclin-dependent kinase 1/cyclin B1 (Homo sapiens, UniProt P06493)
Experiment: Inhibition of GST-tagged CDK1/cyclin B1 (unknown origin) expressed in baculovirus expression system using histone H1 as substrate measured after 45 mins in presence of [gamma33P]ATP by liquid scintillation counting method
reported_metric: pIC50
Just the number, please; pIC50 means minus log10 of the concentration in mol/L.

What the record says about `Nc1nc(Nc2ccc(S(N)(=O)=O)cc2)sc1C(=O)c1ccccc1[N+](=O)[O-]` : pIC50 is 8.12

###

Target: Cyclin-dependent kinase 2/cyclin E1 (Homo sapiens, UniProt P24941)
Assay: Inhibition of CDK2/Cyclin E (unknown origin)
Assay type: protein-complex assay
reported_metric: pIC50
Just the number, please; pIC50 means minus log10 of the concentration in mol/L.

What the record says about CNC(=O)c1nn(C)c2c1C(C)(C)Cc1cnc(Nc3ccc(N4CCN(C)CC4)cc3)nc1-2 [MILCICLIB] : pIC50 is 8.30

###

Exercise: state measured pIC50 for each of the compounds provided.
Target: Cyclin-dependent kinase 2/cyclin E1 (Homo sapiens)
Test: Inhibition of GST-tagged CDK2/Cyclin E (unknown origin) expressed in baculovirus expression system using GST-pRb (776 to 928 residues) as substrate measured after 45 mins in presence of [gamma33P]-ATP by liquid scintillation counting method
Just the number, please; pIC50 means minus log10 of the concentration in mol/L.

What the record says about `CCOC(=O)CSc1cnc(NC(C)=O)s1` : pIC50 is 6.77

What the record says about `Nc1nc(Nc2ccc(S(N)(=O)=O)cc2)sc1C(=O)c1cccnc1` : pIC50 is 9.05

What the record says about `Nc1nc(Nc2ccc(S(N)(=O)=O)cc2)sc1C(=O)c1ccccc1[N+](=O)[O-]` : pIC50 is 8.96

What the record says about `C=CCNc1nc(N)c(C(=O)c2ccccc2)s1` : pIC50 is 4.82

###

Molecular target: UniProt P11802
reported_metric: Ki

What the record says about `Nc1nc(OCC2CCCCC2)c2nc[nH]c2n1` : Ki is > 100 nM

###

Biological target: CDK2/Cyclin A2 (Homo sapiens, UniProt P24941)
Assay: Inhibition of CDK2/Cyclin A (unknown origin)
Assay type: protein-complex assay
reported_metric: IC50

What the record says about CNC(=O)c1nn(C)c2c1C(C)(C)Cc1cnc(Nc3ccc(N4CCN(C)CC4)cc3)nc1-2 [MILCICLIB] : IC50 is 8 nM

###

Target: Cyclin-dependent kinase 5/CDK5 activator 1 (Homo sapiens, UniProt Q00535)
Sequence (Q00535 whole entry): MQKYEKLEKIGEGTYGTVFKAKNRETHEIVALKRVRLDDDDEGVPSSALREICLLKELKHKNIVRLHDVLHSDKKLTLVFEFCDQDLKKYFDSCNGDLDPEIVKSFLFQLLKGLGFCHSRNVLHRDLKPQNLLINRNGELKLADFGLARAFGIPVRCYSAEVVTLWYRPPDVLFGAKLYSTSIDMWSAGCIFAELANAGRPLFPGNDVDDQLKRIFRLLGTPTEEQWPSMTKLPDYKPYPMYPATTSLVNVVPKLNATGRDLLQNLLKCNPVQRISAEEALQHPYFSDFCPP
Sequence (Q15078 whole entry, further chain): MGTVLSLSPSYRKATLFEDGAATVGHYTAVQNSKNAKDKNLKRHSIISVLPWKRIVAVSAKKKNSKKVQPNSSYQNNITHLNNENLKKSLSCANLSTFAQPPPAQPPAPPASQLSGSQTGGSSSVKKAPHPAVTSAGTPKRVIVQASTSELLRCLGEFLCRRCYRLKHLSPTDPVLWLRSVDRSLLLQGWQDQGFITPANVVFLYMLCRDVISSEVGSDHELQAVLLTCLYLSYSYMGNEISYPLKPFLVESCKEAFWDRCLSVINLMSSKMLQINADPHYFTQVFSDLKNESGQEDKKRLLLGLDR
Assay: Inhibition of human recombinant full-length GST/His-tagged CDK5/p25 expressed in baculovirus expression system by Z'-Lyte assay
reported_metric: IC50 (nM)
Give just the number in nM; leave the unit off.

Measured IC50 for this entry `CN1C/C=C/CCOc2cccc(c2)-c2ccnc(n2)Nc2cccc(c2)C1` on Cyclin-dependent kinase 5/CDK5 activator 1 (Homo sapiens, UniProt Q00535): 4

###

Experiment: Inhibition of CDK4/Cyclin D (unknown origin) using pRb as substrate in presence of gamma[32P] ATP by phosphorimaging analysis
Design: species or system Homo sapiens
reported_metric: IC50 (nM)
Give just the number in nM; leave the unit off.

What the record says about `CCNCc1cncc(-c2ccc3[nH]nc(-c4nc5c(F)cc(F)cc5[nH]4)c3c2)c1C` : IC50 is 2.9

###

Target: CDK7/Cyclin H/MNAT1 (Homo sapiens)
Sequence (P51946 whole entry): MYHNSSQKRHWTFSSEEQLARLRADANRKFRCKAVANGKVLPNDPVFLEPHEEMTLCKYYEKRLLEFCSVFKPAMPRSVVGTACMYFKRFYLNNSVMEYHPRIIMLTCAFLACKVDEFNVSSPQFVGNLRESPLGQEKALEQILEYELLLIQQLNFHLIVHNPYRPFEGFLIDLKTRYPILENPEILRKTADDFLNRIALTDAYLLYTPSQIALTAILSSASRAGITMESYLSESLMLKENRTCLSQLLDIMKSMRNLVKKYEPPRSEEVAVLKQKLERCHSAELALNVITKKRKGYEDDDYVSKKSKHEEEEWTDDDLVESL
Sequence (P50613 whole entry): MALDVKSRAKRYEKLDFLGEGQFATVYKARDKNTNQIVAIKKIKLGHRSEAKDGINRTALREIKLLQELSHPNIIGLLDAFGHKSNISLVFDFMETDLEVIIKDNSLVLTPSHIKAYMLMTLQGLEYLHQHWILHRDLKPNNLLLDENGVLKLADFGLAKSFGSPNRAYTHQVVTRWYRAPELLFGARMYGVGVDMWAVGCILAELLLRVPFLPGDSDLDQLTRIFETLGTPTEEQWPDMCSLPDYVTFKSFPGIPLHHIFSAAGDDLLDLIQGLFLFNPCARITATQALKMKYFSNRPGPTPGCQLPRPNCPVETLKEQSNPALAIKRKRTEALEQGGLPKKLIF
Sequence (P51948 whole entry, further chain): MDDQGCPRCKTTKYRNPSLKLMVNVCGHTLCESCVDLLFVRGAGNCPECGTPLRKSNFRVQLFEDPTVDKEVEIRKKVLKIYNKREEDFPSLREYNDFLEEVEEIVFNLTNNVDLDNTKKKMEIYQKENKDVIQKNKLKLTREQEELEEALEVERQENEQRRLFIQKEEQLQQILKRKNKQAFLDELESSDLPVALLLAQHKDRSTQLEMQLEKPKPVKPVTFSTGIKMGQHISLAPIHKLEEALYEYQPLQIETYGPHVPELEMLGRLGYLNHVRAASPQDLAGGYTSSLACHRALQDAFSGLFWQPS
Experiment: Inhibition of recombinant human C-terminal His6-tagged full length CDK7/untagged recombinant full length human Cyclin H/N-terminal GST-tagged recombinant full length human MAT1 expressed in baculovirus infected Sf21 insect cells using cdk7 peptide as substrate
reported_metric: pIC50
Just the number, please; pIC50 means minus log10 of the concentration in mol/L.

What the record says about CN1C/C=C/CCOc2cccc(c2)-c2ccnc(n2)Nc2cccc(c2)C1 [ZOTIRACICLIB] : pIC50 is 7.43

###

Molecular target: Cyclin-dependent kinase 1/cyclin B1 (Homo sapiens)
Experiment: Inhibition of CDK1/Cyclin B (unknown origin) using histone H1 as substrate in presence of gamma[32P] ATP by phosphorimaging analysis
Type: protein-complex assay
reported_metric: pIC50
Just the number, please; pIC50 means minus log10 of the concentration in mol/L.

Measured pIC50 for this entry `CCNCc1cncc(-c2ccc3[nH]nc(-c4nc5c(F)cc(F)cc5[nH]4)c3c2)c1C` on Cyclin-dependent kinase 1/cyclin B1 (Homo sapiens): 8.64

###

Biological target: Cyclin-dependent kinase 1/cyclin B1 (Homo sapiens)
Experiment: Inhibition of CDK1/Cyclin B (unknown origin)
Type: protein-complex assay
reported_metric: IC50 (nM)
Give just the number in nM; leave the unit off.

What the record says about `CNC(=O)c1nn(C)c2c1C(C)(C)Cc1cnc(Nc3ccc(N4CCN(C)CC4)cc3)nc1-2` : IC50 is 9

###

Target: Cyclin-dependent kinase 4/cyclin D1 (Homo sapiens)
Sequence (P11802 whole entry, the tested form may be a part): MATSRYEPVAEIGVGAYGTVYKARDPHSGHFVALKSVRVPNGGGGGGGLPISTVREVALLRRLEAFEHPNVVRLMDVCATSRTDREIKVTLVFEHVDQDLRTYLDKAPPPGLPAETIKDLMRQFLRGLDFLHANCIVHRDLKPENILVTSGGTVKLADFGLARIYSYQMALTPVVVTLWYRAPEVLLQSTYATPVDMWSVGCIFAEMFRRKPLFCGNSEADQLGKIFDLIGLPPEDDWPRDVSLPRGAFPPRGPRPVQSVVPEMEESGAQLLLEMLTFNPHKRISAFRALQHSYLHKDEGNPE
Sequence (P24385 whole entry, further chain, the tested form may be a part): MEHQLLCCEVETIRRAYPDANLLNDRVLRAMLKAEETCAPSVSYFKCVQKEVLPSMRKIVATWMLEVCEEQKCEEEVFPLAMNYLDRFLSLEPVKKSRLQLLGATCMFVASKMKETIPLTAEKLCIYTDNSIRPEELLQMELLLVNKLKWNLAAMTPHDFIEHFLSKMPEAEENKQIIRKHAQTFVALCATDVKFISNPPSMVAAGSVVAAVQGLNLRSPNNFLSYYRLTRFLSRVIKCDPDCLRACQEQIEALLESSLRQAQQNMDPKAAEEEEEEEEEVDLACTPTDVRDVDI
Assay: Inhibition of GST-tagged CDK4/Cyclin D1 (unknown origin) expressed in baculovirus expression system using GST-pRb (776 to 928 residues) as substrate measured after 1 hr in presence of [gamma33P]-ATP by liquid scintillation counting method
reported_metric: IC50
The reply must contain the numeric value and, after it, the unit.

What the record says about `CCCCOc1c(C(=O)c2c(F)cc(C)cc2F)c[nH]c2nncc1-2` : IC50 is 23 nM

###

Biological target: Cyclin-dependent kinase 5/CDK5 activator 1 (Homo sapiens, UniProt Q00535)
Experiment: Inhibition of human recombinant full-length N-terminal His6-tagged CDK5/recombinant human full-length N-terminal GST-tagged p35 using histone H1 as substrate
Format: protein-complex assay
reported_metric: IC50

What the record says about `C[C@@H](O)[C@@H](C)Oc1nc(Nc2ccc([S@](=N)(=O)C3CC3)cc2)ncc1C(F)(F)F` : IC50 is < 10 nM
